- Assay notes: Inhibition of BuChE in rat serum using butyrylthiocholine chloride as substrate measured after 15 mins by Ellman's method
- Setup conditions: 0.25 h
Measured pIC50 accompanies every entry in the list below.
Scale for pIC50: -log10 of concentration given in mol/L; no unit attached.

Observe how each entry below is paired with its result.
| Molecule | Result |
| --- | --- |
| COc1cc(/C=C/C(=O)N2CCC(Cc3ccccc3)CC2)ccc1OCCCN1CCc2ccccc2C1 | 5.64 |
| COc1cc(/C=C/C(=O)N2CCC(Cc3ccccc3)CC2)ccc1OCCCCN1CCc2ccccc2C1 | 5.06 |
| COc1cc(/C=C/C(=O)N2CCC(Cc3ccccc3)CC2)ccc1OCCCN1CCN(c2ccccn2)CC1 | 4.21 |
| COc1cc(/C=C/C(=O)N2CCC(Cc3ccccc3)CC2)ccc1OCCCCCN1CCc2ccccc2C1 | 4.94 |

Ask: Report pIC50, nothing else, for this molecule: COc1cc(/C=C/C(=O)N2CCC(Cc3ccccc3)CC2)ccc1OCCCCN1CCN(c2ncccn2)CC1
Result: 4.25

----------
Entries annotated with measured IC50
- Assayed system: Cholinesterase (Equus caballus)
- Sequence (P81908 whole entry): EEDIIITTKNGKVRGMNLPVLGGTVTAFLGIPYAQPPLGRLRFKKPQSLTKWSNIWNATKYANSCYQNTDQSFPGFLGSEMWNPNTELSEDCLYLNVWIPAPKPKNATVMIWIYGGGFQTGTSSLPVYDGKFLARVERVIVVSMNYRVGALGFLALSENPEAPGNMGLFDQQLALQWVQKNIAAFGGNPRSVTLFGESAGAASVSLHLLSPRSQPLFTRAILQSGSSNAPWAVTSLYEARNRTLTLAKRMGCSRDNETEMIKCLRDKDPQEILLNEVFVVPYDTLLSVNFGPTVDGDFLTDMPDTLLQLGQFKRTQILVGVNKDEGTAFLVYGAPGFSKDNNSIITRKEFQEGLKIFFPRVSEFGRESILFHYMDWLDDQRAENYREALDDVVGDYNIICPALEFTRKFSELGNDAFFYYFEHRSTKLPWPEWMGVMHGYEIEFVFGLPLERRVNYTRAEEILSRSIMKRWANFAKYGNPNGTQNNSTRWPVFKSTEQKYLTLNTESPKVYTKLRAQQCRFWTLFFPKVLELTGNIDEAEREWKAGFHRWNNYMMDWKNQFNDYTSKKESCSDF
- Assay notes: Inhibition of equine serum BuChE using butyrylthiocholine chloride as substrate measured after 15 mins by Ellman's method
Answer format: numeric, µM implied, no suffix.

| Molecule | IC50 [µM] |
| --- | --- |
| COc1cc(/C=C/C(=O)N2CCC(Cc3ccccc3)CC2)ccc1OCCCCCCN1CCN(c2ccccn2)CC1 | 0.95 |
| COc1cc(/C=C/C(=O)N2CCC(Cc3ccccc3)CC2)ccc1OCCCCCCN1CCN(c2ncccn2)CC1 | 0.68 |

Ask: Please indicate IC50 recorded for COc1cc(/C=C/C(=O)N2CCC(Cc3ccccc3)CC2)ccc1OCCCN1CCc2ccccc2C1
Result: 0.12

Ask: Return value of IC50 for input COc1cc(/C=C/C(=O)N2CCC(Cc3ccccc3)CC2)ccc1OCCCCCCN1CCN(Cc2ccccc2)CC1 , no commentary.
Result: 2.2

----------
- Assay notes: Inhibition of BuChE in rat serum using butyrylthiocholine chloride as substrate measured after 15 mins by Ellman's method
- Setup conditions: 0.25 h
Observed property: IC50 (µM)
Form entry: value (µM) — number only.

Ask: Recall and state the measured IC50 for COc1cc(/C=C/C(=O)N2CCC(Cc3ccccc3)CC2)ccc1OCCCCN1CCN(Cc2ccccc2)CC1 .
Result: 41.3

Ask: Provide one value: measured IC50 of COc1cc(/C=C/C(=O)N2CCC(Cc3ccccc3)CC2)ccc1OCCCN1CCN(c2ncccn2)CC1
Result: 45.4

Ask: Read off the recorded IC50 for COc1cc(/C=C/C(=O)N2CCC(Cc3ccccc3)CC2)ccc1OCCCCCCN1CCN(c2ccccn2)CC1
Result: 6.9

Ask: Given COc1cc(/C=C/C(=O)N2CCC(Cc3ccccc3)CC2)ccc1OCCCCCCN1CCN(c2ncccn2)CC1 , respond with its IC50.
Result: 68.6

----------
Collected IC50 values appear next to each entry.
- Assay notes: Inhibition of BuChE in rat serum using butyrylthiocholine chloride as substrate measured after 15 mins by Ellman's method
- Setup conditions: 0.25 h
Answer in µM, number only, no unit symbol.

Sample records with IC50:
| Compound | IC50 (µM) |
| --- | --- |
| COc1cc(/C=C/C(=O)N2CCC(Cc3ccccc3)CC2)ccc1OCCCCCCN1CCN(Cc2ccccc2)CC1 | 50.6 |
| COc1cc2c(cc1OC)C(=O)C(CC1CCN(Cc3ccccc3)CC1)C2 (centres undefined) [DONEPEZIL] | 4.42 |
| COc1cc(/C=C/C(=O)N2CCC(Cc3ccccc3)CC2)ccc1OCCCCN1CCN(c2ccccn2)CC1 | 48.6 |

API: the following record is the query input.
Ask: Identify IC50 associated with the compound COc1cc(/C=C/C(=O)N2CCC(Cc3ccccc3)CC2)ccc1OCCCCCN1CCN(Cc2ccccc2)CC1
Result: 61.5

----------
- Assayed system: Acetylcholinesterase (Homo sapiens, UniProt P22303)
- Sequence (P22303 whole entry): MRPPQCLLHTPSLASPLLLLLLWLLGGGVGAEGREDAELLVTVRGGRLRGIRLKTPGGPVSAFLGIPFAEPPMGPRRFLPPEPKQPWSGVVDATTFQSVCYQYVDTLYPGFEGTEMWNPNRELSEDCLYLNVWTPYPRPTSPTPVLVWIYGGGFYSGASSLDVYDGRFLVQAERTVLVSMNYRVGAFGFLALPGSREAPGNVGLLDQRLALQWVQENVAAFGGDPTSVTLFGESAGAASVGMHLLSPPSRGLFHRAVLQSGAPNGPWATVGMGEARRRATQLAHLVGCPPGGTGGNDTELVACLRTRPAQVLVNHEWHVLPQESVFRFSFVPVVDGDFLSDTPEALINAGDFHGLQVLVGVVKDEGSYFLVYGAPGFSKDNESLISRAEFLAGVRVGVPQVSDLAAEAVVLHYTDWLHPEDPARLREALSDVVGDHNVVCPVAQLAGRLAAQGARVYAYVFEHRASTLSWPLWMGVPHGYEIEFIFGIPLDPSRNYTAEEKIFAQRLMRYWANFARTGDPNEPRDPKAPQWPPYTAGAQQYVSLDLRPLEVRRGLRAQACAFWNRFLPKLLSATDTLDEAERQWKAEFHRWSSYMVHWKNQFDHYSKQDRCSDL
- Assay notes: Inhibition of AChE in human erythrocytes using acetylthiocholine chloride as substrate measured after 15 mins by Ellman's method
Observed property: IC50

Ask: Return reported IC50. Input compound: COc1cc(/C=C/C(=O)N2CCC(Cc3ccccc3)CC2)ccc1OCCCCN1CCc2ccccc2C1
Result: 3.82 µM

----------
- Assayed system: UniProtKB P37136
- Sequence (P37136 whole entry): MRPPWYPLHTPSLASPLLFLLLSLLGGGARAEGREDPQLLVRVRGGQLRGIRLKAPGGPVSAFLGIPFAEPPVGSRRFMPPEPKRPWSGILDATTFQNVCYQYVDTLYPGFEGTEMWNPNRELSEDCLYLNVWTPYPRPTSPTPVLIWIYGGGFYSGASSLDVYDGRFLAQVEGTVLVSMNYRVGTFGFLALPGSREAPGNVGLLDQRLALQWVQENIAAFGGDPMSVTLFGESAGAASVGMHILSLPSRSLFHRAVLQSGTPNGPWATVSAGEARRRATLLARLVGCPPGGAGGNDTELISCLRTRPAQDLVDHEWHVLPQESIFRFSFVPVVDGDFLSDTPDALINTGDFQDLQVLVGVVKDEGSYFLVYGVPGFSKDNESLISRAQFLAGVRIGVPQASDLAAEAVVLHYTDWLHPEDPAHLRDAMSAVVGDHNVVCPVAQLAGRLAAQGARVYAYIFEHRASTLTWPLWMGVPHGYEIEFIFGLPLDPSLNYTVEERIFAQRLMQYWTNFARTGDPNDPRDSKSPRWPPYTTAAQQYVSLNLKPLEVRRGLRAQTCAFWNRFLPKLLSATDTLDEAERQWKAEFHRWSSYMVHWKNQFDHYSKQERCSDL
Observed property: log10 of IC50 (log10 of the value in µM)
Quick note: numbers are log10 of IC50, with µM as the unit.

| Molecule | log10 of IC50 |
| --- | --- |
| COc1cc(/C=C/C(=O)N2CCC(Cc3ccccc3)CC2)ccc1OCCCN1CCN(Cc2ccccc2)CC1 | 1.81 |
| COc1cc(/C=C/C(=O)N2CCC(Cc3ccccc3)CC2)ccc1OCCCCN1CCN(Cc2ccccc2)CC1 | 1.75 |
| COc1cc(/C=C/C(=O)N2CCC(Cc3ccccc3)CC2)ccc1OCCCCCN1CCN(Cc2ccccc2)CC1 | 1.90 |
| COc1cc(/C=C/C(=O)N2CCC(Cc3ccccc3)CC2)ccc1OCCCCN1CCN(c2ccccn2)CC1 | 1.83 |
| COc1cc(/C=C/C(=O)N2CCC(Cc3ccccc3)CC2)ccc1OCCCN1CCN(c2ccccn2)CC1 | 1.88 |

Ask: Find the measured log10 of IC50 of COc1cc(/C=C/C(=O)N2CCC(Cc3ccccc3)CC2)ccc1OCCCCCN1CCN(c2ccccn2)CC1 and report it.
Result: 1.77

Ask: Give reported log10 of IC50 value for COc1cc(/C=C/C(=O)N2CCC(Cc3ccccc3)CC2)ccc1OCCCCCN1CCc2ccccc2C1
Result: 0.51

Ask: Output log10 of IC50 of COc1cc(/C=C/C(=O)N2CCC(Cc3ccccc3)CC2)ccc1OCCCCN1CCc2ccccc2C1
Result: 0.26

----------
- Assayed system: Cholinesterase (Homo sapiens, UniProt P06276)
- Sequence (P06276 whole entry): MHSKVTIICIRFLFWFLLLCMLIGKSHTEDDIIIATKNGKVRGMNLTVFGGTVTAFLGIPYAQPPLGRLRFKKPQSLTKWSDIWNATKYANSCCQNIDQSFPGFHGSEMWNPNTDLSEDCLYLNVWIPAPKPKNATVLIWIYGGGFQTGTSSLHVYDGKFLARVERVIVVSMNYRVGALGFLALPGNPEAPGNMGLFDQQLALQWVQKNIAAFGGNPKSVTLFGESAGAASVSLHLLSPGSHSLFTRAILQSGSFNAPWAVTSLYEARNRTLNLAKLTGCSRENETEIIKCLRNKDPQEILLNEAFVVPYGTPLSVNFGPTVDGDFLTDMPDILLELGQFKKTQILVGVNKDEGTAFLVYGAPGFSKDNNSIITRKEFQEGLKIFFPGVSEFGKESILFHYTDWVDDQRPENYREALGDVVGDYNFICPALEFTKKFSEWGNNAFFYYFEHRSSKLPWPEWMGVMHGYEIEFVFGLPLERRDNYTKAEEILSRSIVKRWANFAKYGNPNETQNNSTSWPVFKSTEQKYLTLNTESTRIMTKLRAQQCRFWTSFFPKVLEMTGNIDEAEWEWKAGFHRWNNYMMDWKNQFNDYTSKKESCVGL
- Assay notes: Inhibition of BuChE in human serum using butyrylthiocholine chloride as substrate measured after 15 mins by Ellman's method
Observed property: pIC50
Conceptually, pIC50 converts a concentration in mol/L into minus its log10.

Ask: Provide pIC50, tested on Cholinesterase (Homo sapiens, UniProt P06276), for COc1cc(/C=C/C(=O)N2CCC(Cc3ccccc3)CC2)ccc1OCCCCN1CCc2ccccc2C1 .
Result: 7.15

----------
This document collects pIC50 values reported for Acetylcholinesterase (Electrophorus electricus).
Keep in mind that pIC50 stands for -log10 of concentration in molar terms.

Study these solved cases before continuing.
| Molecule | Assayed system | pIC50 |
| --- | --- | --- |
| COc1cc(/C=C/C(=O)N2CCC(Cc3ccccc3)CC2)ccc1OCCCCCN1CCN(c2ncccn2)CC1 | Acetylcholinesterase (Electrophorus electricus) | 5.24 |
| COc1cc(/C=C/C(=O)N2CCC(Cc3ccccc3)CC2)ccc1OCCCN1CCN(c2ncccn2)CC1 | Acetylcholinesterase (Electrophorus electricus) | 4.90 |
| COc1cc(/C=C/C(=O)N2CCC(Cc3ccccc3)CC2)ccc1OCCCCN1CCN(c2ncccn2)CC1 | Acetylcholinesterase (Electrophorus electricus) | 4.91 |

Next up:
Ask: Report the value of pIC50 obtained on Acetylcholinesterase (Electrophorus electricus) for COc1cc(/C=C/C(=O)N2CCC(Cc3ccccc3)CC2)ccc1OCCCCCCN1CCc2ccccc2C1 .
Result: 5.03

----------
// values below are reported pIC50
- Assayed system: Acetylcholinesterase (Electrophorus electricus, UniProt O42275)
- Sequence (O42275 whole entry): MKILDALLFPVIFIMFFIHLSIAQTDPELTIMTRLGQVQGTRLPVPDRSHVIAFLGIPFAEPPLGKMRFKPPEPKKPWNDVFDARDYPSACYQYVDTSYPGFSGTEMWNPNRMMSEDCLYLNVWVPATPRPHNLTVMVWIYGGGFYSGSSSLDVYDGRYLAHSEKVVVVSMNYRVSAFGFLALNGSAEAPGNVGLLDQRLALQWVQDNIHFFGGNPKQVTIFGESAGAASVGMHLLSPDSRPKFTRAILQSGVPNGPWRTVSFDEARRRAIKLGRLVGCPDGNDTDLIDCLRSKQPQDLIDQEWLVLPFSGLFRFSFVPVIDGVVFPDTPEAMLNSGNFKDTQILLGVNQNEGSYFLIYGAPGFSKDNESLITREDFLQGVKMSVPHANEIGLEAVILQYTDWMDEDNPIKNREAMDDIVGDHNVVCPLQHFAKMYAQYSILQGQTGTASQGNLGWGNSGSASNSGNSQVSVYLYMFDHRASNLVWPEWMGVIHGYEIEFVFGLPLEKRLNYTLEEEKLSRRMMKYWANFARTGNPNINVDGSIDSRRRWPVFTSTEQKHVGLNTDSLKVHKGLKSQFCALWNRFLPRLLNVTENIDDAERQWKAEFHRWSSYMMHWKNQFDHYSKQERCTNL
# pIC50 is unitless: minus log10 of the molar concentration; print number only

Below, 5 compounds whose answers are already recorded.
| Molecule | pIC50 |
| --- | --- |
| COc1cc(/C=C/C(=O)N2CCC(Cc3ccccc3)CC2)ccc1OCCCCN1CCN(c2ccccn2)CC1 | 4.95 |
| COc1cc(/C=C/C(=O)N2CCC(Cc3ccccc3)CC2)ccc1OCCCCCCN1CCN(Cc2ccccc2)CC1 | 5.32 |
| COc1cc(/C=C/C(=O)N2CCC(Cc3ccccc3)CC2)ccc1OCCCCCN1CCc2ccccc2C1 | 5.36 |
| COc1cc(/C=C/C(=O)N2CCC(Cc3ccccc3)CC2)ccc1OCCCN1CCc2ccccc2C1 | 5.66 |
| COc1cc(/C=C/C(=O)N2CCC(Cc3ccccc3)CC2)ccc1OCCCN1CCN(c2ccccn2)CC1 | 4.98 |

Ask: Tell me its pIC50 given COc1cc(/C=C/C(=O)N2CCC(Cc3ccccc3)CC2)ccc1OCCCCCN1CCN(c2ccccn2)CC1 as the entry.
Result: 5.04

Ask: Supply measured pIC50 of COc1cc(/C=C/C(=O)N2CCC(Cc3ccccc3)CC2)ccc1OCCCCCN1CCN(Cc2ccccc2)CC1 in your reply.
Result: 5.58

Ask: Return pIC50 for the following compound: COc1cc(/C=C/C(=O)N2CCC(Cc3ccccc3)CC2)ccc1OCCCCN1CCN(Cc2ccccc2)CC1
Result: 5.60

----------
- Assay notes: Inhibition of BuChE in rat serum using butyrylthiocholine chloride as substrate measured after 15 mins by Ellman's method
- Setup conditions: 0.25 h
Below, each of the compounds is paired with its reported IC50 value.
Numeric answer only, unit µM assumed.

Some solved entries appear below for comparison.
| Molecule | Reading unit | IC50 |
| --- | --- | --- |
| COc1cc(/C=C/C(=O)N2CCC(Cc3ccccc3)CC2)ccc1OCCCN1CCN(Cc2ccccc2)CC1 | µM | 41.2 |
| COc1cc(/C=C/C(=O)N2CCC(Cc3ccccc3)CC2)ccc1OCCCCCCN1CCc2ccccc2C1 | µM | 3.47 |
| COc1cc(/C=C/C(=O)N2CCC(Cc3ccccc3)CC2)ccc1OCCCCCN1CCN(c2ncccn2)CC1 | µM | 45.3 |

Moving on to the next compound.
Ask: Give IC50 for the following compound: COc1cc(/C=C/C(=O)N2CCC(Cc3ccccc3)CC2)ccc1OCCCCCN1CCN(c2ccccn2)CC1
Result: 57.3

Where do the numbers come from? From ChEMBL document CHEMBL4011587.
